Just for reference, ChEMBL document CHEMBL1955770 is where these values come from.

target: Insulin receptor (Homo sapiens, UniProt P06213)
Sequence (P06213 28-758 limits assumed): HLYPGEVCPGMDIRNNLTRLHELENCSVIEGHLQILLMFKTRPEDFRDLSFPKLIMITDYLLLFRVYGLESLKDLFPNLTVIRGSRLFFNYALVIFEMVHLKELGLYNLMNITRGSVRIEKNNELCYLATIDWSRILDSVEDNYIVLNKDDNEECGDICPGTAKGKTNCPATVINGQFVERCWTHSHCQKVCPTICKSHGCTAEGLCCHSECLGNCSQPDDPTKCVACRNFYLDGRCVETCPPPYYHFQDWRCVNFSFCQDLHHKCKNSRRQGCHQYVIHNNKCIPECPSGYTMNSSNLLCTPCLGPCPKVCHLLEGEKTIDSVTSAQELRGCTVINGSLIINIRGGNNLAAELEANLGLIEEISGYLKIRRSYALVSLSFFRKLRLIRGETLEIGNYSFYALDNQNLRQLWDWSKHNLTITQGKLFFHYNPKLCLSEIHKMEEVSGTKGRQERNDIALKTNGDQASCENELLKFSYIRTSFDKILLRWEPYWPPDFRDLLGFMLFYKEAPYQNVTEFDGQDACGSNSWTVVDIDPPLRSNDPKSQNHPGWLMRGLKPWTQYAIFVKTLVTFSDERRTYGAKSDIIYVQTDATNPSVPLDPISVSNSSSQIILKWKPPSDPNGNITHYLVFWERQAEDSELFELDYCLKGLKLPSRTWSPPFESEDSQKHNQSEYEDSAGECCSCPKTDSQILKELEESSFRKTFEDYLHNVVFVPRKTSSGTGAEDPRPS
Sequence (P06213 763-1382 limits assumed): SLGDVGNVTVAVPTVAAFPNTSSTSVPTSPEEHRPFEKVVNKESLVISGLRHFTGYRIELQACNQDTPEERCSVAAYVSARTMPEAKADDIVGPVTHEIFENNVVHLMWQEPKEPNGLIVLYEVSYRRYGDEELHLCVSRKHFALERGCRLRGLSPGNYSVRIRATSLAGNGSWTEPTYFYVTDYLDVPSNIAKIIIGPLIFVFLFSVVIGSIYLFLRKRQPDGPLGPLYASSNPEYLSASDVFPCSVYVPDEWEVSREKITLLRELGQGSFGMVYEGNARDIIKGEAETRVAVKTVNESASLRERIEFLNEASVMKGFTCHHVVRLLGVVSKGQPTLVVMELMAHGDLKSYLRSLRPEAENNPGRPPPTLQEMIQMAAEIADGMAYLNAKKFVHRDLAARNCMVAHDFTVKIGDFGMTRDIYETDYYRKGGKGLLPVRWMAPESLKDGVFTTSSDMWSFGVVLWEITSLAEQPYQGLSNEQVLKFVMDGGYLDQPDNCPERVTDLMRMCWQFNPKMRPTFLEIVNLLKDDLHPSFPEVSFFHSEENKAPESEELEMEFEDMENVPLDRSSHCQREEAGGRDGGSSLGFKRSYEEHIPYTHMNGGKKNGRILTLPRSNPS
Quantity Name: pIC50
Reminder that pIC50 is minus the log10 of a molar concentration.

Which pIC50 reading was recorded for the molecule CN1CCN(c2ccc(Nc3nc(N)c(C(=O)c4ccc5c(c4)OCCO5)s3)cc2)CC1 ? 4.15

* * *

Listing of recorded pIC50 by entry.
target: Cyclin-dependent kinase 1/cyclin B1 (Homo sapiens, UniProt P06493); experiment: Inhibition of human CDK1-GST-tagged cyclin B using his-tagged Rb as substrate after 30 mins by scintillation counting method
Sequence (P06493 whole entry): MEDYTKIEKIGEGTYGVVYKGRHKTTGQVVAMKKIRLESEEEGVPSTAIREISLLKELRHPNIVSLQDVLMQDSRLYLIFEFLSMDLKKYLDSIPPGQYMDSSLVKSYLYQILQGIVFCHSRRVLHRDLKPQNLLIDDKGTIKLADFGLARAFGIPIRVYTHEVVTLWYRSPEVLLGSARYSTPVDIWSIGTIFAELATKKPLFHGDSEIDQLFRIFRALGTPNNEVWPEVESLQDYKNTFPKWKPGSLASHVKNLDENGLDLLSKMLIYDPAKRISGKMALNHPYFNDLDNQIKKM
Sequence (P14635 whole entry, further chain): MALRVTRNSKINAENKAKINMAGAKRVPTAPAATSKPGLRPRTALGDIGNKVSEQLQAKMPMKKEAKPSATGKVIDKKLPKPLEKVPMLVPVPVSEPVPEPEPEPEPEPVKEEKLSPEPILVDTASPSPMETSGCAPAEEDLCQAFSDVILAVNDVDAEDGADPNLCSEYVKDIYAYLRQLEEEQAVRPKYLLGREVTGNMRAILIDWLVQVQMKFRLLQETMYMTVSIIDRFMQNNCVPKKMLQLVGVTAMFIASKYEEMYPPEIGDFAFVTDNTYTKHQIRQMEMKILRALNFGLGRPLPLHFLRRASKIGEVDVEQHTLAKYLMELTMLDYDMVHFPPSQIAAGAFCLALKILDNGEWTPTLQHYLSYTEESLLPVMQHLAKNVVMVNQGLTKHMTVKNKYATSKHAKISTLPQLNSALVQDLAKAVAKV
In simple prose, pIC50 is minus the logarithm base ten of a concentration in moles per litre.

> print(dat)
                            smiles.notation  quantity.name  value.measured
1  COc1cccc(C(=O)c2sc(Nc3ccc(N4CCN(C(C)C)CC4)cc3)nc2N)c1          pIC50            5.70

Here is another molecule to look at.
I'd like to know its pIC50. The molecule in question is CN1CCN(c2ccc(Nc3nc(N)c(C(=O)c4ccc5c(c4)OCCO5)s3)cc2)CC1 5.52

* * *

system: RKO; assay: Antiproliferative activity against human RKO cells assessed as inhibition of S phase after 48 hrs by MTT assay; type: functional, cell-based
The following compounds are listed with their measured IC50 values.
Answer in nM, number only, no unit symbol.

> print(dat)
                            smiles.notation  quantity.name  value.measured
1  CN1CCN(c2ccc(Nc3nc(N)c(C(=O)c4ccc5c(c4)OCCO5)s3)cc2)CC1           IC50            1600

Now take the following compound into account.
Reported IC50, compound COc1cccc(C(=O)c2sc(Nc3ccc(N4CCN(C(C)C)CC4)cc3)nc2N)c1 : ____ 540

* * *

test system: NCI-H460; assay: Antiproliferative activity against human H460a cells assessed as inhibition of S phase after 48 hrs by MTT assay; assay type: functional, cell-based; settings: NCI-H460, 48 h
Reported IC50 values follow for various compounds
Note: unit µM is implicit; provide only the numeric part.

> print(dat)
                            smiles.notation  test.system  quantity.name  unit.label  value.measured
1  CN1CCN(c2ccc(Nc3nc(N)c(C(=O)c4ccc5c(c4)OCCO5)s3)cc2)CC1     NCI-H460           IC50          µM            8.12

Note: attention shifts to another entry.
So what IC50 did COc1cccc(C(=O)c2sc(Nc3ccc(N4CCN(C(C)C)CC4)cc3)nc2N)c1 get with NCI-H460? 1.14
